All figures here come from patent US12590099B2.

Could you please report measured pIC50 for the items listed next?
study target: Recombinant human HDAC2 (Homo sapiens, UniProt Q92769)
Construct: Full length human HDAC2-FLAG was expressed in baculovirus infected Sf9 cells; FLAG (C); made in house; host or cells: Sf9 (baculovirus)
Sequence (Q92769 whole entry): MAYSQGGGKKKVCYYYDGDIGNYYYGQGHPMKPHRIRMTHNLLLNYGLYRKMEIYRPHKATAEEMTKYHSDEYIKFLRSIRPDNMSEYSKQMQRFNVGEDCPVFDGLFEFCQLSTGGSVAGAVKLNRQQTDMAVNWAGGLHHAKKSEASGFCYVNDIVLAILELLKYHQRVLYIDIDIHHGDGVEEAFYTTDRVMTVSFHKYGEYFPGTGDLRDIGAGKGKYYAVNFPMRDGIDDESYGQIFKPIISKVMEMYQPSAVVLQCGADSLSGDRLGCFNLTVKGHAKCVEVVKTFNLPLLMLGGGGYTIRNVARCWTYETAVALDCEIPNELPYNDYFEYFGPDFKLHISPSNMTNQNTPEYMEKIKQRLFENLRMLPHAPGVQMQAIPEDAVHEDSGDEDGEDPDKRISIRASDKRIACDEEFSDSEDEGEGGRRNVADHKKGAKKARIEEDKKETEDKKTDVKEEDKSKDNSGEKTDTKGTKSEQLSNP
protocol summary: Human HDAC enzyme inhibitor Fluor-de-Lys assay, HDAC2
Assay type: biochemical
condition summary: recombinant human HDAC2, Fluor-de-Lys assay
Give bare numbers, as −log10 of the molar value.

Completed entries (count: 2):
Kindly note the recorded pIC50 for CCC(=O)CCCCC[C@H](NC(=O)C1CC12CCN(CC)CC2)c1nc(-c2ccc(F)cc2)[nH]c1-c1cn[nH]c1 (stereo partly drawn) [Compound 249] , which is 7.05

Kindly note the recorded pIC50 for CCC(=O)CCCCC[C@H](NC(=O)C1CC12CCOCC2)c1ncc(-c2cc3ccc(C)nc3cc2OC)[nH]1 (single isomer, unassigned) [Compound 413] , which is 6.81

Look at each molecule and report its pIC50.
1. CCC(=O)CCCCC[C@H](NC(=O)C1=NOC2(CCN(C)CC2)C1)c1ncc(-c2cc3ccncc3cc2OC)o1 [Compound 415]
2. CCC(=O)CCCCC[C@H](NC(=O)C1CC12CCN(CC)CC2)c1nc(-c2ccc(F)cc2)[nH]c1-c1cnn(C)c1 (stereo partly drawn) [Compound 248]
3. CCC(=O)CCCCC[C@H](NC(=O)C1CC12CCN(CC)CC2)c1nc(-c2ccc(F)cc2)[nH]c1-c1ccsc1 (stereo partly drawn) [Compound 250]
4. CCC(=O)CCCCC[C@H](NC(=O)[C@H]1CC12CCN(C)CC2)c1ncc(-c2cc3ccc(N(C)C)nc3cc2OC)o1 [Compound 406]

7.48
7.62
6.72
8.60

###

study target: Recombinant human HDAC8 (Homo sapiens)
Construct: purchased Enzo Life Sciences BML-SE145-0100
Sequence (Q9BY41 whole entry): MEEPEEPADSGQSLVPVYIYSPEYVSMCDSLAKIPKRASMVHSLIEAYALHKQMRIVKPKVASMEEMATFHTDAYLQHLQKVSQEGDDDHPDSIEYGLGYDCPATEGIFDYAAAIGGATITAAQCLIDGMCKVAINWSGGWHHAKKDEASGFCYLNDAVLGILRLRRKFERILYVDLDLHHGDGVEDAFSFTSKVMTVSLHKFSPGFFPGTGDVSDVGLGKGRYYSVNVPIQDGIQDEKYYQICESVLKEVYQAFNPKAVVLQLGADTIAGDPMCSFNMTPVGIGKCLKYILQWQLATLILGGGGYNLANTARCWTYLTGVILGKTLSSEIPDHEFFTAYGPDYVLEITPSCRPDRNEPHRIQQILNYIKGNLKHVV
protocol summary: Human HDAC enzyme inhibitor Fluor-de-Lys assay, HDAC8
Type: biochemical
value kind: pIC50
Give bare numbers, as −log10 of the molar value.

Kindly note the recorded pIC50 for CCC(=O)CCCCC[C@H](NC(=O)[C@H]1CC12CCN(C)CC2)c1ncc(-c2coc3ccccc3c2=O)[nH]1 , which is 5.50

Kindly note the recorded pIC50 for CCC(=O)CCCCC[C@H](NC(=O)[C@H]1CC12CCN(CC)CC2)c1ncc(-c2ccc3c(cnn3C3CC3)c2)[nH]1 , which is 5.33

Look at each compound and report its pIC50.
1. CCC(=O)CCCCC[C@H](NC(=O)C1=NOC2(CCN(CC)CC2)C1)c1ncc(-c2cc3ccc(C)nc3cc2OC)[nH]1
2. CCC(=O)CCCCC[C@H](NC(=O)[C@H]1CC12CCN(CC)CC2)c1ncc(-c2cc3cccnc3cc2OC)o1
3. CCC(=O)CCCCC[C@H](NC(=O)[C@H]1CC12CCN(C)CC2)c1ncc(-c2ccc3oc(=O)ccc3c2)[nH]1
4. CCC(=O)CCCCC[C@H](NC(=O)[C@H]1CC12CCN(CC)CC2)c1ncc(-c2ccc(-c3cnc(C4CC4)nc3)cc2)o1
5. CCC(=O)CCCCC[C@H](NC(=O)[C@H]1CC12CCN(C)CC2)c1ncc(-c2ccc3ncoc3c2)[nH]1
6. CCC(=O)CCCCC[C@H](NC(=O)[C@H]1CC12CCN(CC)CC2)c1ncc(-c2cc3ccccc3nc2OC)o1
7. CCC(=O)CCCCC[C@H](NC(=O)C1=NOC2(CCN(C)CC2)C1)c1ncc(-c2ccc3nn(C)cc3c2)[nH]1

5.80
5.12
5.00
4.57
5.01
4.80
4.92

Kindly note the recorded pIC50 for CCC(=O)CCCCC[C@H](NC(=O)C1CCC2(CC1)CN(C)C2)c1ncc(-c2ccc3nn(C)cc3c2)[nH]1 , which is 5.23
